Exercise: for every item that follows, state its recorded Drug uptake.
tested on: Liver; assay: Biodistribution in ddY mouse liver at 2 uCi, iv after 10 mins; type: ADME, organism-based; conditions: in vivo

Value sought for every listed molecule: Drug uptake.
1. CNc1ccc(-c2cc(=O)c3cc([125I])ccc3o2)cc1
2. COc1ccc(-c2cc(=O)c3cc([125I])ccc3o2)cc1
3. CN(C)c1ccc(-c2cc(=O)c3cc([125I])ccc3o2)cc1

A)
1. 25.28 % ID/g
2. 9.01 % ID/g
3. 21.85 % ID/g

// recorded Drug uptake for O=c1cc(-c2ccc(O)cc2)oc2ccc([125I])cc12 : 8.24 % ID/g

====

test system: Blood; test: Biodistribution in ddY mouse blood at 2 uCi, iv after 60 mins; assay type: ADME, organism-based; details: in vivo, 1 h
observable: Drug uptake

// below: answered molecules
INSERT INTO assay_data (compound_smiles, observed) VALUES
  ('O=c1cc(-c2ccc(O)cc2)oc2ccc([125I])cc12', '0.2 % ID/g'),
  ('CN(C)c1ccc(-c2cc(=O)c3cc([125I])ccc3o2)cc1', '1.15 % ID/g'),
  ('CNc1ccc(-c2cc(=O)c3cc([125I])ccc3o2)cc1', '1.5 % ID/g');

Note: attention shifts to another entry.
# Drug uptake (molecule: COc1ccc(-c2cc(=O)c3cc([125I])ccc3o2)cc1 ) is 0.23 % ID/g

====

target: Amyloid-beta precursor protein (Homo sapiens); test: Displacement of [125I]6-iodo-4'-dimethyaminofl avone from beta amyloid (1-42) protein aggregates
Sequence (P05067 whole entry): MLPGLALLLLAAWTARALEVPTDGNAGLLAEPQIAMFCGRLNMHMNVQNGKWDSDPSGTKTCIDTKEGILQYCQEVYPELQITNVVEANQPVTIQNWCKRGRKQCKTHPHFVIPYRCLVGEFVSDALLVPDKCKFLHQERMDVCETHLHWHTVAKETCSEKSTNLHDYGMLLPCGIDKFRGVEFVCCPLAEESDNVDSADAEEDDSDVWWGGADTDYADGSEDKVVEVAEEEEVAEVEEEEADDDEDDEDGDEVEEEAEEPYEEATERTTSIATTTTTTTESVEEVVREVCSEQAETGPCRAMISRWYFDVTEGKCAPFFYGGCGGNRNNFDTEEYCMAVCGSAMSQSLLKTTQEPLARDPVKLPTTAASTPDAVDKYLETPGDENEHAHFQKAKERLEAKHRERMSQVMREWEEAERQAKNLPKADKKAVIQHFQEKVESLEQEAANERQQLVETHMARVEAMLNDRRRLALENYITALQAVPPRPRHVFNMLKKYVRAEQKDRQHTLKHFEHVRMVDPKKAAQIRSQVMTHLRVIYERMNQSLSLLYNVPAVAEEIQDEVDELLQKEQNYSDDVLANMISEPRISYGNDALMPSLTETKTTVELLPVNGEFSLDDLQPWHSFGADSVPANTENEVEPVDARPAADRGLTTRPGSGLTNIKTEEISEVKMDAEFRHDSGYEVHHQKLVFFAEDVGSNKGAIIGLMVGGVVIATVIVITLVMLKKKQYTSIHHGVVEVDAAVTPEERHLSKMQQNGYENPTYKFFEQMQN
pKi: −log10 of the molar value.
observable: pKi

Note to self: pKi of Nc1c(/N=N/c2ccc(-c3ccc(/N=N/c4cc(S(=O)(=O)O)c5ccccc5c4N)cc3)cc2)cc(S(=O)(=O)O)c2ccccc12 with Amyloid-beta precursor protein (Homo sapiens) was < 6.00

====

tested on: Heart; assay: Biodistribution in ddY mouse heart at 2 uCi, iv after 30 mins; assay type: ADME, organism-based; details: in vivo, 0.5 h
Would you kindly list Drug uptake for each of these compounds?
One number for each entry, in % ID/g.

Below, 3 compounds whose answers are already recorded.
INSERT INTO measurements (compound_smiles, observable, observed) VALUES
  ('CNc1ccc(-c2cc(=O)c3cc([125I])ccc3o2)cc1', 'Drug uptake', 1.67),
  ('CN(C)c1ccc(-c2cc(=O)c3cc([125I])ccc3o2)cc1', 'Drug uptake', 1.69),
  ('COc1ccc(-c2cc(=O)c3cc([125I])ccc3o2)cc1', 'Drug uptake', 0.84);

API: the following record is the query input.
GET /value?item= O=c1cc(-c2ccc(O)cc2)oc2ccc([125I])cc12 &field=Drug uptake returns 0.53

====

tested on: Heart; assay: Biodistribution in ddY mouse heart at 2 uCi, iv after 60 mins; assay type: ADME, organism-based; settings: in vivo, 1 h
observable: Drug uptake

INSERT INTO assay_data (compound_smiles, observed) VALUES
  ('CN(C)c1ccc(-c2cc(=O)c3cc([125I])ccc3o2)cc1', '1.07 % ID/g'),
  ('CNc1ccc(-c2cc(=O)c3cc([125I])ccc3o2)cc1', '1.28 % ID/g'),
  ('COc1ccc(-c2cc(=O)c3cc([125I])ccc3o2)cc1', '0.47 % ID/g');

# context switch: different compound, same Drug uptake
Lab book: Drug uptake of O=c1cc(-c2ccc(O)cc2)oc2ccc([125I])cc12 noted as 0.12 % ID/g
